System: CCRF-CEM
Test: Antiviral activity to inhibit viral replication of HIV-1 infected CEM cells
Format: functional
Settings: Homo sapiens
Labels assigned by IC95 range: lowest (below 0.06 µM), middle (0.06 µM to below 0.3 µM), highest (0.3 µM or more)

| compound | class |
| --- | --- |
| CC(C)(C)NC(=O)[C@@H]1C[C@@H]2CCCC[C@@H]2CN1C[C@@H](O)[C@H](Cc1ccccc1)NC(=O)[C@@H](CS(=O)(=O)c1ccc2ccccc2c1)NS(C)(=O)=O | lowest |
| CC(=O)N[C@H](CS(=O)(=O)c1cccc2cccnc12)C(=O)N[C@@H](Cc1ccccc1)[C@H](O)CN1C[C@H]2CCCC[C@H]2C[C@H]1C(=O)NC(C)(C)C | middle |
| CC(C)(C)NC(=O)[C@@H]1C[C@@H]2SCC[C@@H]2CN1C[C@@H](O)[C@H](Cc1ccccc1)NC(=O)[C@@H](CS(=O)(=O)c1cccc2cccnc12)NS(C)(=O)=O | middle |
| CC(C)(C)NC(=O)[C@@H]1C[C@@H]2SCC[C@@H]2CN1C[C@@H](O)[C@H](Cc1ccccc1)NC(=O)[C@@H](CS(=O)(=O)c1ccc(F)cc1)NS(C)(=O)=O | middle |
| CC(C)CN(C[C@@H](O)[C@H](Cc1ccccc1)NC(=O)[C@@H](CSc1ccc(F)cc1)NS(C)(=O)=O)C(=O)NC(C)(C)C | highest |
| CC(C)(C)NC(=O)[C@@H]1C[C@@H]2SCC[C@@H]2CN1C[C@@H](O)[C@H](Cc1ccccc1)NC(=O)[C@@H](CS(=O)(=O)c1ccc2ccccc2c1)NC(=O)C(F)(F)F | lowest |
| CC(C)(C)NC(=O)[C@@H]1C[C@@H]2CCCC[C@@H]2CN1C[C@@H](O)[C@H](Cc1ccccc1)NC(=O)[C@@H](CSc1ccc(F)cc1)NS(C)(=O)=O | highest |
| CC(C)(C)NC(=O)[C@@H]1C[C@@H]2SCC[C@@H]2CN1C[C@@H](O)[C@H](CSc1ccccc1)NC(=O)[C@@H](CS(=O)(=O)c1ccc2ccccc2c1)NC(=O)C(F)(F)F | middle |
| CC(C)(C)NC(=O)[C@@H]1C[C@@H]2SCC[C@@H]2CN1C[C@@H](O)[C@H](Cc1ccccc1)NC(=O)[C@@H](CS(=O)(=O)c1ccc2ccccc2c1)NS(C)(=O)=O | middle |
| CC(C)CN(C[C@@H](O)[C@H](Cc1ccccc1)NC(=O)[C@@H](CS(=O)(=O)c1ccc(F)cc1)NS(C)(=O)=O)C(=O)NC(C)(C)C | highest |
| CC(C)(C)NC(=O)[C@@H]1C[C@@H]2SCC[C@@H]2CN1C[C@@H](O)[C@H](CSc1ccccc1)NC(=O)[C@@H](CS(=O)(=O)c1ccc(F)cc1)NC(=O)C(F)(F)F | highest |
| CC(C)(C)NC(=O)[C@@H]1C[C@@H]2CCCC[C@@H]2CN1C[C@@H](O)[C@H](Cc1ccccc1)NC(=O)[C@@H](CS(=O)(=O)c1ccc(F)cc1)NS(C)(=O)=O | lowest |
| CC(C)CN(C[C@@H](O)[C@H](Cc1ccccc1)NC(=O)[C@@H](CSc1ccc2ccccc2c1)NS(C)(=O)=O)C(=O)NC(C)(C)C | highest |
| CC(C)(C)NC(=O)[C@@H]1C[C@@H]2CCCC[C@@H]2CN1C[C@@H](O)[C@H](Cc1ccccc1)NC(=O)[C@@H](CSc1ccc2ccccc2c1)NS(C)(=O)=O | highest |
| CC(C)(C)NC(=O)[C@@H]1C[C@@H]2SCC[C@@H]2CN1C[C@@H](O)[C@H](Cc1ccccc1)NC(=O)[C@@H](CS(=O)(=O)c1ccc(F)cc1)NC(=O)C(F)(F)F | lowest |
| CC(C)CN(C[C@@H](O)[C@H](Cc1ccccc1)NC(=O)[C@@H](C[S+]([O-])c1ccc2ccccc2c1)NS(C)(=O)=O)C(=O)NC(C)(C)C (stereo not given in full) | middle |
| CC(=O)N[C@H](CS(=O)(=O)c1ccc(F)cc1)C(=O)N[C@@H](CSc1ccccc1)[C@H](O)CN1C[C@H]2CCS[C@H]2C[C@H]1C(=O)NC(C)(C)C | middle |
| CC(C)(C)NC(=O)[C@@H]1C[C@@H]2CCCC[C@@H]2CN1C[C@@H](O)[C@H](Cc1ccccc1)NC(=O)[C@@H](C[S+]([O-])c1ccc(F)cc1)NS(C)(=O)=O (stereo not given in full) | lowest |

Data provenance: ChEMBL document CHEMBL1128092
